Measured Primary assay EC50 (cAMP), n1 accompanies every entry in the list below.
- Target Of Assay: GLP-1 receptor (human, UniProt P43220 24-463)
- Procedure Text: cell-based or functional assay
Starred links: 1 amine or outer side, 2 acyl side, 3 side chain; linkers in the order of their positions; H or OH if unused. Non-standard residues stand in square brackets, D forms with d. Groups on a side chain read outwards from the residue. Primed or numbered codes have the meaning given here. No end group written: not given here. *: point of attachment. γGlu = O=C(O)[C@H](CCC(=O)[*:2])N[*:1]; Stearoyl = CCCCCCCCCCCCCCCCCC(=O)*; αMeF = C[C@](N)(Cc1ccccc1)C(=O)O; αMeK = C[C@](N)(CCCCN)C(=O)O; αMeS = C[C@](N)(CO)C(=O)O; PEG2′ = not defined here; Aib = CC(C)(N)C(=O)O

Binder: H[Aib]EGS[αMeF]TDDV[αMeS]S[αMeF]LEGEAAK([PEG2′-PEG2′-γGlu-Stearoyl])E[αMeF]IA[αMeF]VV[αMeK]GG-NH2 [SEQ ID NO 36]
Primary assay EC50 (cAMP), n1 (nM): 63
//
Binder: H[Aib]EGS[αMeF]TSDV[αMeS]S[αMeF]LEGEAAK([PEG2′-PEG2′-γGlu-Stearoyl])E[αMeF]IA[αMeF]VV[αMeK]GG-NH2 [SEQ ID NO 33]
Primary assay EC50 (cAMP), n1 (nM): 0.064
//
Binder: H[Aib]EGS[αMeF]TSDVSK([PEG2′-PEG2′-PEG2′-Stearoyl])YLEGEAA[αMeK]E[αMeF]IA[αMeF]VVEGG-NH2 [SEQ ID NO 64]
Primary assay EC50 (cAMP), n1 (nM): 0.0014
